Measured differential viability (reversal) of individual entries
- measurement notes: reversal of MRP1-mediated doxorubicin resistance, pilot screen, H69AR cells, doxorubicin co-treatment (AID 601)
- condition context: H69AR cells + 2 uM doxorubicin, CellTiter-Glo, 72 h; at 10 µM; stronger effect = higher value
State just the number; it will be interpreted in %.

(Q) For the compound Nc1cc(=O)[nH]c(SCC(=O)Nc2ccc(Br)cc2)n1 , what differential viability (reversal) is on record?
(A) 4.49

(Q) Entry CCn1cc(C(=O)O)c(=O)c2cc(F)c(N3CCNCC3)cc21 : reported differential viability (reversal) = ?
(A) 3.17

(Q) State the recorded differential viability (reversal) for this entry: COc1ccc(S(=O)(=O)N2CCCC(C(=O)NCc3ccccn3)C2)cc1 (stereo unspecified)
(A) 3.92

====

- measurement notes: growth inhibitors of H69AR lung tumor, primary screen, human, duplicate replicates (AID 580);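 also: 100% = mean luminescence of untreated wells and 0% = no signal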
- condition context: H69AR lung tumor cells viability, ATP luminescence, 72 h; at 10 µM
Active and inactive are the calls of the source.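 The calls were made as follows: active = viability at or under a set limit in both replicates, limit being median viability minus 3 SD (cut at about 48% in these data, passing the limit was not always enough); inconclusive = at or under the limit in just one replicate; inactive = at or above the limit in both replicates.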
Use one of these outcomes when replying: active, inactive

CCOC(=O)c1c(C)[nH]c(C)c1C(=O)COC(=O)CNC(=O)c1ccc(OCC)cc1; inactive
Cc1ccccc1NC(=O)C1CCC(C)(C(=O)O)C1(C)C (stereo unspecified); inactive
Cc1cc(C)c2nc(C(F)(F)F)nc(NCCCN3CCCC3=O)c2c1; inactive
O=C(c1cc(-c2cccc(O)c2)on1)N1CCN(C(c2ccccc2)c2ccccc2)CC1; active
Cc1ccc(-c2nnc(SC(C)C#N)n2N)cc1 (stereo unspecified); inactive

(Q) What did this assay record as the result for COc1ccc(NC(=O)CCNC(=O)Cn2ccc3ccccc3c2=O)c(OC)c1 ?
(A) inactive

====

- measurement notes: reducers of endogenous Her2 protein level, primary screen, SKBR3 breast tumor cells, AlphaScreen, ATP viability (AID 461);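 also: percent of carrier control wells set as 100% viability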
- condition context: 18-24 h, measured here: SKBR3 viability, ATP luminescence, at 10 µM
viability listing for selected compounds.
State just the number; it will be interpreted in %.

Cc1ccc(OCC(=O)N2CCN(C(=O)CCC3CCCC3)CC2)cc1; 104

(Q) Entry CCCCc1ccc(NC(=O)COCC)cc1 has what viability?
(A) 110

(Q) Could you share which viability value was measured for O=C(c1cc(-c2ccco2)nn1-c1cccc(Cl)c1)N1CCCCC1 ?
(A) 111

(Q) Would you mind telling me what viability value was observed for CCOC(=O)CSC1=C(C#N)C(c2ccc(Cl)cc2)C(C(=O)OC)C(=O)N1 (stereo unspecified) ?
(A) 104

(Q) Name the recorded viability for Cc1cccc(NC(=O)c2cc3ccccc3o2)c1 .
(A) 142

(Q) Could you tell me which viability is on file for O=C(NCCc1ccccc1)C1CCCN(S(=O)(=O)c2cccs2)C1 (stereo unspecified) ?
(A) 89

====

// values below are reported viability
- measurement notes: reversal of MRP1-mediated doxorubicin resistance, pilot screen, H69AR cells, doxorubicin co-treatment (AID 601)
- condition context: H69AR cells + 2 uM doxorubicin, CellTiter-Glo, 72 h; measured here: viability with 2 uM doxorubicin; at 10 µM; stronger effect = lower value
# output: bare number, implied unit %

COC1=CC(=O)CC(C)C12Oc1c(Cl)c(OC)cc(OC)c1C2=O (stereo not drawn); 50
O=c1c(O)c(-c2ccc(O)cc2O)oc2cc(O)cc(O)c12; 99.6
CCOC(=O)c1ccc(N(CC(=O)NC2CCCC2)C(=O)CNC(=O)c2ccco2)cc1; 92.4
Nc1ncnc2c1ncn2[C@@H]1O[C@H](CO)[C@@H](O)[C@H]1O; 87

We now examine a further compound.
(Q) Entry under review: CCOC(=O)CCC(=O)c1c(C)oc2ccc(OC)cc12 . Reported viability?
(A) 93.4

====

- measurement notes: SK-BR-3 cell growth inhibitors, pilot screen, 24 h, human (AID 572);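 also: compound exposure lasted between 18 and 24 h rather than exactly 24 h; 100% = carrier-treated control wells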
- condition context: SK-BR-3 viability, CellTiter-Glo luminescence, at 10 µM, stronger effect = lower value
measured endpoint: viability (%)
Give the value in % but do not write % after it.

Example results:
CN(C)/C=C1\N=C(c2ccc(Cl)cc2Cl)OC1=O; 102
Clc1ccccc1OCCCCn1ccnc1; 95
COc1ccccc1C(=O)N1CCN(CCc2ccccc2)CC1; 102
COC(=O)c1ccccc1NC(=O)CN1CCC(n2nnc3cc(F)ccc32)CC1; 64
Cc1cccc(NC(=O)c2cc(NC(=O)c3ccco3)ccc2Cl)n1; 101
CCN1CCCC1CNCc1ccc(Cl)cc1Cl (stereo unspecified); 92.5

Now, please, on to the next compound.
(Q) I have this compound here, O=C(CC(=O)c1cc(Cl)ccc1O)c1ccccc1 , and I need its recorded viability.
(A) 131

====

- measurement notes: 384-well plate pilot, post-Golgi transport modulator project, inhibition of yeast transport mutant growth (AID 636)
- condition context: absorbance 615 nm, about 18 h, stronger effect = higher value
The source made the active and inactive calls. Rule as the data show it: active = inhibition above about 31%; inactive = the rest.
measured endpoint: inhibition

Observe how each entry below is paired with its result.
COCC(=O)NC(c1ccccc1)c1ccccc1; -5.84% (inactive)
CCOc1ccccc1NC(=O)CCSc1nc2n[nH]c(C)c2c(=N)n1-c1ccccc1Cl; -3.03% (inactive)
CC(C)(C)OC(=O)N1CCN(c2ccc(NC(=O)c3cc4ccccc4oc3=O)cc2)CC1; -5.45% (inactive)
O=C(NC1CCCC1)C(c1cccs1)N(C(=O)c1ccno1)c1ccccc1 (stereo unspecified); -3.78% (inactive)
COc1ccc(Br)cc1S(=O)(=O)N1CCOCC1; -2.76% (inactive)

# next compound below
(Q) Please report the recorded inhibition for CCc1ncc(C(O)c2cccc(OC)c2OC)n1C (stereo unspecified) .
(A) -3.68% (inactive)

====

The entries below come with measured viability values attached.
- measurement notes: SK-BR-3 cell growth inhibitors, pilot screen, 24 h, human (AID 572);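 also: compound exposure lasted between 18 and 24 h rather than exactly 24 h; 100% = carrier-treated control wells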
- condition context: SK-BR-3 viability, CellTiter-Glo luminescence, at 10 µM, stronger effect = lower value
Activity calls are given as the source filed them.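 The calls were made as follows: active = viability at or below 10% of carrier control in both of two separate runs; inconclusive = viability at or below 10% in only one of the two runs; inactive = the rest.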

Consider the reported viability for these molecules:
CCCCN1CN(S(=O)(=O)c2cccs2)c2nc3ccccc3nc21; 97% (inactive)
COc1ccc(N(CC(=O)N2CCCCC2)S(=O)(=O)c2ccccc2)c(OC)c1; 91% (inactive)
Cc1nnc(NC(=O)CCC(=O)N2CCC(C)CC2)s1; 86% (inactive)
N#CC(C(=O)CCN1C(=O)C2CC=CCC2C1=O)c1nc2ccccc2[nH]1 (stereo not drawn); 116% (inactive)
O=C(O)Cc1ccccc1C(=O)O; 120% (inactive)

(Q) Returns the measured viability for the input molecule. Input: CCc1nnc(NC(=O)CSc2nnc3ncccn23)s1
(A) 91% (inactive)

(Q) Need viability, item CC(=O)SCC(=O)N=c1sc2cc(F)ccc2n1C
(A) 90.5% (inactive)

(Q) viability for COc1nc(NCCc2ccc(OC)c(OC)c2)nc(NC(C)(C)CO)n1 ?
(A) 96% (inactive)

(Q) Can you share its viability? I mean this molecule: O=C(NC1CCCC1)C(c1cccs1)N(Cc1ccco1)C(=O)Cn1nnc(-c2cccs2)n1 (stereo not drawn)
(A) 71% (inactive)

(Q) # input molecule: CC1Oc2ccccc2N(Cc2ccccc2Cl)C1=O (stereo not drawn) ; wanted: its viability
(A) 77% (inactive)

(Q) Form field: reported viability of C=CCN(CC=C)C(=O)c1ccncc1
(A) 115% (inactive)

(Q) Endpoint output: viability of NS(=O)(=O)c1ccc(NC(=O)CSc2nnc(Cc3cccs3)n2-c2ccccc2)cc1 . Value?
(A) 57% (inactive)

(Q) Which viability is reported for this molecule? CCN(c1ccc2c(c1)OCO2)S(=O)(=O)c1cc(Br)cc2c1N(C(=O)C1CC1)CC2
(A) 131% (inactive)

(Q) Give the measured viability of CCOc1cc2[nH]c(=S)n(CC3CCCO3)c(=O)c2cc1OCC (stereo not drawn) .
(A) 105% (inactive)

(Q) I'd like to know its viability. The molecule in question is Cc1cc(C)n2nc[n+](C)c2n1
(A) 88% (inactive)

====

Reported values of viability for individual entries
- measurement notes: reducers of endogenous Her2 protein level, primary screen, SKBR3 breast tumor cells, AlphaScreen, ATP viability (AID 461);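 also: percent of carrier control wells set as 100% viability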
- condition context: 18-24 h, measured here: SKBR3 viability, ATP luminescence, at 10 µM
Response body: numeric value in %, unit text excluded.

Consider the following illustrative entries.
C=C(C)COc1ccc(-c2nc(N)ncc2Oc2ccccc2OCC)c(O)c1; 79
O=C(CNS(=O)(=O)c1ccccc1)NCc1ccccn1; 84

(Q) May I ask what viability has been recorded for NC(=O)CSCc1ccc(Br)cc1 ?
(A) 100

(Q) Recorded viability of O=C(c1ccco1)N1CCN(c2c(-c3ccccc3)c3cc(Cl)ccc3[nH]c2=O)CC1 , please.
(A) 94

(Q) Which viability value belongs to O=C(NCC(c1cccnc1)N1CCN(c2ccc(F)cc2)CC1)OCc1ccccc1 (configuration not stated) ?
(A) 101

(Q) Can you share its viability? I mean this compound: Cc1ccc2c(C)nc(Nc3nc(CSc4nnnn4-c4ccccc4)cc(=O)[nH]3)nc2c1
(A) 98

(Q) I would be grateful if you could share the reported viability for COc1ccc(OC)c2[nH]c(=O)c(CCNC(=O)CC(C)C)cc12 .
(A) 111

(Q) # input compound: COc1ccc(C(=O)N2CCN(C3CCCCC3)CC2)c(OC)c1 ; wanted: its viability
(A) 82.5

(Q) Query: viability; subject: Cc1ccc(S(=O)(=O)N2CCCC(c3nnc4n3-c3ccccc3SC4)C2)cc1 (configuration not stated)
(A) 78
